- System: Staphylococcus aureus
- protocol-summary: Antibacterial activity against Staphylococcus aureus ATCC 29213 assessed as bacterial growth inhibition incubated for 16 to 18 hrs by CLSI based antibiotic susceptibility testing method
- Assay type: functional
- condition-description: time 16-18 hrs

# molecule, MIC
records = [
    ("O=C(CN1C(=O)c2cccc3cccc(c23)C1=O)NC1CCN(C(=S)NC2CCCCCC2)CC1", "0.5 µg/mL"),
    ("O=C(CCN1C(=O)c2cccc3cccc(c23)C1=O)N1CCN(C(=S)Nc2ccc(Cl)cc2)CC1", "> 64 µg/mL"),
    ("O=C(Nc1ccc(Cl)cc1)N1CCN(CCN2C(=O)c3cccc4cccc(c34)C2=O)CC1", "> 64 µg/mL"),
    ("O=C1c2cccc3cccc(c23)C(=O)N1CCN1CCN(C(=S)NC23CC4CC(CC(C4)C2)C3)CC1", "> 64 µg/mL"),
    ("COc1ccc(NC(=S)N2CCN(C(=O)CCN3C(=O)c4cccc5cccc(c45)C3=O)CC2)cc1", "> 64 µg/mL"),
    ("O=C(CN1C(=O)c2cccc3cccc(c23)C1=O)N1CCN(C(=S)Nc2ccccc2)CC1", "> 64 µg/mL"),
    ("O=C(CN1C(=O)c2cccc3cccc(c23)C1=O)NC1CCN(C(=S)NC2CCCC2)CC1", "> 64 µg/mL"),
    ("O=C1c2cccc3cccc(c23)C(=O)N1CCN1CCN(C(=S)NC2CC2)CC1", "> 64 µg/mL"),
    ("O=C(CN1C(=O)c2cccc3cccc(c23)C1=O)N1CCC(NC(=S)NC2CCCC2)CC1", "0.031 µg/mL"),
]

---

Reported MIC by item:
- Tested on: Staphylococcus aureus
- protocol-summary: Antibacterial activity against Staphylococcus aureus ATCC 29213 assessed as bacterial growth inhibition incubated for 16 to 18 hrs by CLSI based antibiotic susceptibility testing method
- Type: functional
- condition-description: time 16-18 hrs
metric-name: MIC (µg/mL)

# molecule, relation-qualifier, recorded-measurement
measured = [
    ("O=C(Nc1ccccc1)N1CCN(CCN2C(=O)c3cccc4cccc(c34)C2=O)CC1", "=", 8),
    ("O=C(CN1C(=O)c2cccc3cccc(c23)C1=O)NC1CCN(C(=S)Nc2ccc(Cl)cc2)CC1", ">", 64),
    ("O=C1c2cccc3cccc(c23)C(=O)N1CCN1CCN(C(=S)NC2CCCCC2)CC1", "=", 0.125),
    ("Cc1ccc(NC(=S)N2CCN(CCN3C(=O)c4cccc5cccc(c45)C3=O)CC2)cc1", ">", 64),
    ("O=C(CCN1C(=O)c2cccc3cccc(c23)C1=O)N1CCN(C(=S)Nc2ccccc2Cl)CC1", ">", 64),
    ("O=C(CN1C(=O)c2cccc3cccc(c23)C1=O)NC1CCN(C(=S)NC2CCCCC2)CC1", "=", 0.25),
]

---

- Test system: Staphylococcus aureus
- protocol-summary: Antibacterial activity against Staphylococcus aureus ATCC 29213 assessed as bacterial growth inhibition incubated for 16 to 18 hrs by CLSI based antibiotic susceptibility testing method
- Assay type: functional
- condition-description: time 16-18 hrs
Reported MIC by item:

# molecule, MIC
rows = [
    ("O=C(CN1C(=O)c2cccc3cccc(c23)C1=O)N1CCC(NC(=S)NC2CCCCCC2)CC1", "0.25 µg/mL"),
    ("CCCCCCCNC(=S)N1CCN(CCN2C(=O)c3cccc4cccc(c34)C2=O)CC1", "> 64 µg/mL"),
    ("O=C(CN1C(=O)c2cccc3cccc(c23)C1=O)N1CCC(NC(=S)NC2CCCCC2)CC1", "0.125 µg/mL"),
    ("O=C1c2cccc3cccc(c23)C(=O)N1CCN1CCN(C(=S)Nc2ccc(Cl)c(Cl)c2)CC1", "> 64 µg/mL"),
    ("O=C1c2cccc3cccc(c23)C(=O)N1CCN1CCN(C(=S)Nc2cccnc2)CC1", "> 64 µg/mL"),
    ("COc1ccc(NC(=S)N2CCN(C(=O)CN3C(=O)c4cccc5cccc(c45)C3=O)CC2)cc1", "> 64 µg/mL"),
    ("O=C1c2cccc3cccc(c23)C(=O)N1CCN1CCN(C(=S)NC2CCCCCC2)CC1", "0.25 µg/mL"),
    ("O=C1c2cccc3cccc(c23)C(=O)N1CCN1CCN(C(=S)NC2CCCC2)CC1", "0.125 µg/mL"),
    ("O=C(CN1C(=O)c2cccc3cccc(c23)C1=O)NC1CCN(C(=S)Nc2ccccc2)CC1", "4 µg/mL"),
    ("CCN=C(S)N1CCN(CCN2C(=O)c3cccc4cccc(c34)C2=O)CC1", "> 64 µg/mL"),
    ("O=C(CN1C(=O)c2cccc3cccc(c23)C1=O)N1CCN(C(=S)NC2CCCCC2)CC1", "0.25 µg/mL"),
    ("O=C(CN1C(=O)c2cccc3cccc(c23)C1=O)N1CCN(C(=S)Nc2ccc(Cl)cc2)CC1", "> 64 µg/mL"),
    ("O=C(CCN1C(=O)c2cccc3cccc(c23)C1=O)NC1CCN(C(=S)Nc2ccccc2)CC1", "> 64 µg/mL"),
    ("O=C(CN1C(=O)c2cccc3cccc(c23)C1=O)N1CCC(NC(=S)NC23CC4CC(CC(C4)C2)C3)CC1", "4 µg/mL"),
    ("O=C1c2cccc3cccc(c23)C(=O)N1CCN1CCN(C(=S)Nc2cccc(Cl)c2)CC1", "> 64 µg/mL"),
    ("O=C1c2cccc3cccc(c23)C(=O)N1CCN1CCN(C(=S)Nc2ccccc2Cl)CC1", "> 64 µg/mL"),
    ("Cc1ccc(NC(=S)N2CCN(C(=O)CCN3C(=O)c4cccc5cccc(c45)C3=O)CC2)cc1", "> 64 µg/mL"),
    ("Cc1ccc(NC(=S)N2CCN(C(=O)CN3C(=O)c4cccc5cccc(c45)C3=O)CC2)cc1", "> 64 µg/mL"),
    ("CC(C)NC(=S)N1CCN(CCN2C(=O)c3cccc4cccc(c34)C2=O)CC1", "> 64 µg/mL"),
]
